- tgt: Trypsin-3 (Homo sapiens, UniProt P35030)
- Sequence (P35030 whole entry): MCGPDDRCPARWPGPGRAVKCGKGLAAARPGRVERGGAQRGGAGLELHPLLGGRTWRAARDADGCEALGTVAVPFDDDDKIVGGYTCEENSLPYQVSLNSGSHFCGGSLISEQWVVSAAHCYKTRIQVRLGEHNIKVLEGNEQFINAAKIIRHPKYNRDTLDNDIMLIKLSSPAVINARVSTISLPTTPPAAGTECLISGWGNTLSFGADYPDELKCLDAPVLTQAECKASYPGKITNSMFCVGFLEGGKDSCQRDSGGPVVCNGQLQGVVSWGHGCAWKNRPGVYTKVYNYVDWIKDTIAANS
- experimental_details: Kinetic progress curves (kapp, K1, KI*, mechanism)
- Assay type: biochemical
- Set-up: purchased R&D
- condition_description: defined by the progress curves: slow-binding (Rev.) or irreversible (Irrev.)
assay_metric: Trypsin-3 mechanism of inhibition

- compound: "C#CCCCOC(=O)NC(CCCNC(=N)N)P(=O)(Oc1ccccc1)Oc1ccccc1 (centres unmarked) [32b]"
  result: "Irrev."
- compound: "C[C@@H]1NC(=O)N[C@@H]1CCCCCC(=O)NCCOCCOCCOCCn1cc(CCCOC(=O)NC(Cc2ccc(NC(=N)N)cc2)P(=O)(Oc2ccc(Cl)cc2)Oc2ccc(Cl)cc2)nn1 (some centres unmarked) [54b]"
  result: "* ^d Rev."
- compound: "C[C@@H]1NC(=O)N[C@@H]1CCCCCC(=O)NCCOCCOCCOCCn1cc(CCCOC(=O)NC(CCCNC(=N)N)P(=O)(Oc2ccccc2)Oc2ccccc2)nn1 (some centres unmarked) [45b]"
  result: "Irrev."
- compound: "C#CCCCOC(=O)NC(c1ccc(NC(=N)N)cc1)P(=O)(Oc1ccc(NC(C)=O)cc1)Oc1ccc(NC(C)=O)cc1 (centres unmarked) [38b]"
  result: "Irrev."
- compound: "C[C@@H]1NC(=O)N[C@@H]1CCCCCC(=O)NCCOCCOCCOCCn1cc(CCCOC(=O)NC(c2ccc(NC(=N)N)cc2)P(=O)(Oc2ccccc2)Oc2ccccc2)nn1 (some centres unmarked) [55b]"
  result: "Irrev."
- compound: "C#CCCCOC(=O)NC(c1ccc(NC(=N)N)cc1)P(=O)(Oc1ccc(Cl)cc1)Oc1ccc(Cl)cc1 (centres unmarked) [39b]"
  result: "Irrev."
- compound: "C#CCCCOC(=O)NC(Cc1ccc(NC(=N)N)cc1)P(=O)(Oc1ccc(Cl)cc1)Oc1ccc(Cl)cc1 (centres unmarked) [36b]"
  result: "Rev."
- compound: "CC(=O)Nc1ccc(OP(=O)(Oc2ccc(NC(C)=O)cc2)C(Cc2ccc(NC(=N)N)cc2)NC(=O)OCCCc2cn(CCOCCOCCOCCNC(=O)CCCCC[C@H]3NC(=O)N[C@H]3C)nn2)cc1 (some centres unmarked) [52b]"
  result: "Rev."
- compound: "CC(=O)Nc1ccc(OP(=O)(Oc2ccc(NC(C)=O)cc2)C(NC(=O)OCCCc2cn(CCOCCOCCOCCNC(=O)CCCCC[C@H]3NC(=O)N[C@H]3C)nn2)c2ccc(NC(=N)N)cc2)cc1 (some centres unmarked) [56b]"
  result: "Irrev."
- compound: "C[C@@H]1NC(=O)N[C@@H]1CCCCCC(=O)NCCOCCOCCOCCn1cc(CCCOC(=O)NC(c2ccc(NC(=N)N)cc2)P(=O)(Oc2ccc(Cl)cc2)Oc2ccc(Cl)cc2)nn1 (some centres unmarked) [57b]"
  result: "Irrev."
- compound: "C[C@@H]1NC(=O)N[C@@H]1CCCCCC(=O)NCCOCCOCCOCCn1cc(CCCOC(=O)NC(CCCNC(=N)N)P(=O)(Oc2ccc(Cl)cc2)Oc2ccc(Cl)cc2)nn1 (some centres unmarked) [46b]"
  result: "Irrev."
- compound: "C#CCCCOC(=O)NC(c1ccc(NC(=N)N)cc1)P(=O)(Oc1ccccc1)Oc1ccccc1.O=C(O)C(F)(F)F (centres unmarked) [37b]"
  result: "Irrev."
- compound: "C[C@@H]1NC(=O)N[C@@H]1CCCCCC(=O)NCCOCCOCCOCCn1cc(CCCOC(=O)NC(Cc2ccc(NC(=N)N)cc2)P(=O)(Oc2ccccc2)Oc2ccccc2)nn1 (some centres unmarked) [50b]"
  result: "Rev."
- compound: "C#CCCCOC(=O)NC(Cc1ccc(NC(=N)N)cc1)P(=O)(Oc1ccc(NC(C)=O)cc1)Oc1ccc(NC(C)=O)cc1 (centres unmarked) [35b]"
  result: "* ^d Rev."
